Consider the following compounds; for each one, report its AC50 cell viability.
System: HCT116;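 also: HCT116 colorectal carcinoma cells screened at five concentrations per compound, luminescent viability scaled between DMSO wells and empty wells on each plate, curves fitted per compound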
method description: AC50 cell viability (CellTiter-Glo); higher = less potent
stated conditions: 48 h
Answer format reminder: number followed by unit.

Use these answered entries as a reference point.
- COc1cc(OC)cc(N(CCNC(C)C)c2ccc3ncc(-c4cnn(C)c4)nc3c2)c1: 13.2 µM
- C[C@@H](NC(=O)c1ncnc(N)c1Cl)c1ncc(C(=O)Nc2cc(C(F)(F)F)c(Cl)cn2)s1: 13.2 µM
- O=C(/C=C/c1ccc(Cl)cc1)N1CCC2(CC1)CN(Cc1ccc(Cl)c(Cl)c1)C(=O)O2: 23.5 µM
- CCC(=O)N1CCOc2c(cc(-c3cc(OC)cc(OC)c3)cc2C(=O)N[C@H]2CCCN(C)C2)C1: 20.9 µM

I would be grateful if you could provide AC50 cell viability for each of the following entries.
1. C[C@@H]1COCCN1c1cc(C2([S@+](C)(=N)[O-])CC2)nc(-c2ccnc3[nH]ccc23)n1
2. CC(=O)N1c2ccc(-c3ccc(C(=O)O)cc3)cc2[C@H](Nc2ccc(Cl)cc2)C[C@@H]1C
3. COC1=CC(=CC=C1)C2=CC=C(NC(=O)/C3=C(/CCC3)C(O)=O)C(=C2)F
4. COc1cc2nc(-c3ccc(N4CCN(C)CC4)cc3)nc(NCCN3CCOCC3)c2cc1OC
5. Cc1cn(CCN2CCN(c3ccccc3-c3cc(C#N)cc(C(=O)NCCCN4CCCC4)c3)CC2)c2ccccc12

Reply:
1: 8.33 µM; 2: 0.833 µM; 3: 5.25 µM; 4: 2.95 µM; 5: 26.3 µM
